targetDesc: T1, His-tagged CD73 extracellular domain protein (hCD73 ECD-His) (human, UniProt P21589 27-547)
T1 construct: Expressed in CHO cells from pTT5-hCD73 ECD-His6, purified on nickel column; also called hCD73 ECD-His6; human CD73 ECD
T1 sequence: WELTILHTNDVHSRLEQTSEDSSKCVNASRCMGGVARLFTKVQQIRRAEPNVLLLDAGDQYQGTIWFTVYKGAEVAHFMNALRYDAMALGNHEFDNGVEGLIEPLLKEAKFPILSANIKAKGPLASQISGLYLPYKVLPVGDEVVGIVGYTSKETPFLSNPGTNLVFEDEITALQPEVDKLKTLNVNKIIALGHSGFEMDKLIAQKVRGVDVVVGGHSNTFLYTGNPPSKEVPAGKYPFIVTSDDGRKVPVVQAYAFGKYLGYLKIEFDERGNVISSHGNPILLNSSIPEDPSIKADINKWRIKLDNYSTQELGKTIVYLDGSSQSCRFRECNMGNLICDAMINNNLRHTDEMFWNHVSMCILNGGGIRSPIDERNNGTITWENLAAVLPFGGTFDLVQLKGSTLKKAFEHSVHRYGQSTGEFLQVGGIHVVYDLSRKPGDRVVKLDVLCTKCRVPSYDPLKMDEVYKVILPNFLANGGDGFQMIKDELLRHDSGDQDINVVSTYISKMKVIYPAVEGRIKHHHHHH
experimentSummary: Octet BLI, antibody on AHC sensor, antigen 50-200 nM, 1:1 fit
Measured koff by item
Kindly provide the numeric value in s⁻¹ only, without the unit symbol.

Some entries whose results are on file:
# binder, unitText, numericResult
measured = [
    ("mab042xhIgG1TM (clone 77B9A3), mouse-human chimeric anti-CD73 antibody (antibody, V domains shown, also called mAb042 chimeric antibody) VH: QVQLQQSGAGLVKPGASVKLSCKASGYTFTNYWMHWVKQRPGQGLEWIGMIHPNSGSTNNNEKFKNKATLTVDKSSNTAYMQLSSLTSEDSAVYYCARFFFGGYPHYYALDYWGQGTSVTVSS VL: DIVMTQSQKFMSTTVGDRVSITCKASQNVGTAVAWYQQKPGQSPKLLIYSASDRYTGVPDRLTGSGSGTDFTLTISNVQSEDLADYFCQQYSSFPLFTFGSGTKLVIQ", "s⁻¹", "2.73e-05"),
    ("mab036xhIgG1TM (clone 66H6C12), mouse-human chimeric anti-CD73 antibody (antibody, V domains shown, also called mAb036 chimeric antibody) VH: QVQLQQSGAEVVKPGASVKISCKASGYVFSSYWINWVKQRPGKGLEWIGKIFPGNGDTDYNGNFKGKATLTADKSSSTAYMQLSSLTSEDSAVYFCAGFADWGQGTLVTVSA VL: DIQMTQSPSSLSASLGERVSLTCRASQDIGERLIWLQQEPDGTFKRLIYATSSLDSGVPKRFSGSSSGSDYSLTISRLESEDFVDYYCLQYASSPYTFGGGTKLEIK", "s⁻¹", "6.42e-06"),
    ("mab020xhIgG1TM (clone 24D6B4), mouse-human chimeric anti-CD73 antibody (antibody, V domains shown, also called mAb020 chimeric antibody) VH: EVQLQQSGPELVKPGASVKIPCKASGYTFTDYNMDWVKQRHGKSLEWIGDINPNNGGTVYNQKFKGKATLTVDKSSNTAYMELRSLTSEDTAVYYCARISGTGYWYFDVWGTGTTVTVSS VL: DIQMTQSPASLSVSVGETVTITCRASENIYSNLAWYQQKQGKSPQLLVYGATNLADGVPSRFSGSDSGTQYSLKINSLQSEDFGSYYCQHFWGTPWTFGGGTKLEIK", "s⁻¹", "1.91e-05"),
]

Turning to the following binder.
Short answer for mab038xhIgG1TM (clone 69C9E12), mouse-human chimeric anti-CD73 antibody (antibody, V domains shown, also called mAb038 chimeric antibody) VH: QVQLQQPGTELVNPGASVKLSCKASGYTFTSYWMHWVKQRPGQGLEWIGNINPSNGGTHYNEKFNNKATLTVDKSSSTAYMQLSSLTSEDSAVFYCARGDYAYDWYFTVWGTGTTVTVSS VL: DIVLTQSPASLAVSLGQRAIISCKASQSVSFAGTGLMHWYQQKPGQQPKLLIYRVSNLEAGIPTRFSGSGSRTDFTLNIHPVEEDDAATYYCQQNREFPWTFGGGTKLEIK : koff was 2.97e-05

The reported numbers originate from patent US20220098319A1.
